Reported hPDGF-BB NIH-3T3 Proliferation IC50 is given for each of the following binders.
target or system: Human PDGF-BB (human, UniProt P01127 82-190)
Sequence (P01127 82-190 limits assumed): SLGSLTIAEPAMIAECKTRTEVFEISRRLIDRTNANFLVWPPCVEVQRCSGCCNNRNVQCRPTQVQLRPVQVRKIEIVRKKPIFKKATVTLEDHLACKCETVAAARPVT
run description: cell-based or functional assay

{"columns": ["binder", "hPDGF-BB NIH-3T3 Proliferation IC50, nM"],
 "data": [
  ["CL-33759-IgG (antibody, V domains shown) VH: EVTLRESGPALVKPTQTLTLTCTFSGFSLSTYGMGVGWIRQPPGKALEWLANIWWDDDKYYNPSLKNRLTISKDTSKNQVVLTMTNMDPVDTATYYCARIESVWTRYDFDYWGQGTMVTVSS VL: EIVLTQSPGTLSLSPGERATLSCERSSGDIWQTYVSWYQQKPGQAPRLVIYGDDQRASGIPDRFSGSGSGTDFTLTISRLEPEDFAVYYCQSYDIDIDITFGGGTKVEIK", 0.293],
  ["CL-33682-IgG (antibody, V domains shown) VH: EVTLRESGPALVKPTQTLTLTCTFSGFSLSTYGMGVGWIRQPPGKALEWLANIWWDDDKYYNPSLKNRLTISKDTSKNQVVLTMTNMDPVDTATYYCARIESSWTSYSFDYWGQGTMVTVSS VL: EIVLTQSPGTLSLSPGERATLSCERSSGSNYDTYVSWYQQKPGQAPRLLIYADDLRASGIPDRFSGSGSGTDFTLTISRLEPEDFAVYYCQSYGINIDVVFGGGTKVEIK", 0.03],
  ["CL-33803-IgG (antibody, V domains shown) VH: EVTLRESGPALVKPTQTLTLTCTFSGFSLSTYGMGVGWIRQPPGKALEWLANIWWDDDKYYNPSLKNRLTISKDTSKNQVVLTMTNMDPVDTATYYCARIESLPTSYSFDYWGQGTMVTVSS VL: EIVLTQSPGTLSLSPGERATLSCERSSGDIWDTYVSWYQQKPGQAPRLLIYADDQRPSGIPDRFSGSGSGTDFTLTISRLEPEDFAVYYCQSYDIIIDIVFGGGTKVEIK", 0.024]
]}
